IC50 values recorded for SST2 (Homo sapiens, UniProt P30874)
Parameter: IC50 (nM)

Compound: C[C@@H](O)[C@H](NC(=O)C1CSSCC(NC(=O)C(Cc2ccccc2)NC(=O)CNC(=O)CNC(=O)[C@@H](CC(N)=O)NC(=O)C(CC(N)=O)NC(=O)[C@@H](CNC(=O)CC[C@H](C(=O)O)N2CCN(CC(=O)O)CCN(CC(=O)O)CCN(CC(=O)O)CC2)NC(=O)C(CN)NC(=O)c2ccc([Si](F)(C(C)(C)C)C(C)(C)C)cc2)C(=O)N[C@@H](Cc2ccc(O)cc2)C(=O)NC(Cc2c[nH]c3ccccc23)C(=O)N[C@@H](CCCCN)C(=O)N[C@@H]([C@@H](C)O)C(=O)N1)C(=O)O (some centres unmarked) (natGa complex, metal not drawn) [[Ga]41]
Parameter: IC50
Assay Value: 3.64
//
Compound: C[C@@H](O)[C@H](NC(=O)C1CSSCC(NC(=O)C(Cc2ccccc2)NC(=O)CNC(=O)CNC(=O)[C@@H](CC(=O)O)NC(=O)C(CC(=O)O)NC(=O)[C@@H](CNC(=O)CN2CCN(CC(=O)O)CCN(CC(=O)O)CCN(CC(=O)O)CC2)NC(=O)C(CN)NC(=O)c2ccc([Si](F)(C(C)(C)C)C(C)(C)C)cc2)C(=O)N[C@@H](Cc2ccc(O)cc2)C(=O)NC(Cc2c[nH]c3ccccc23)C(=O)N[C@@H](CCCCN)C(=O)N[C@@H]([C@@H](C)O)C(=O)N1)C(=O)O (some centres unmarked) (natGa complex, metal not drawn) [[Ga]19]
Parameter: IC50
Assay Value: 11.2

---

Each record here notes measured HSA.
- Tested Target: HSA (Homo sapiens, UniProt P02768)
- Sequence (P02768 25-609): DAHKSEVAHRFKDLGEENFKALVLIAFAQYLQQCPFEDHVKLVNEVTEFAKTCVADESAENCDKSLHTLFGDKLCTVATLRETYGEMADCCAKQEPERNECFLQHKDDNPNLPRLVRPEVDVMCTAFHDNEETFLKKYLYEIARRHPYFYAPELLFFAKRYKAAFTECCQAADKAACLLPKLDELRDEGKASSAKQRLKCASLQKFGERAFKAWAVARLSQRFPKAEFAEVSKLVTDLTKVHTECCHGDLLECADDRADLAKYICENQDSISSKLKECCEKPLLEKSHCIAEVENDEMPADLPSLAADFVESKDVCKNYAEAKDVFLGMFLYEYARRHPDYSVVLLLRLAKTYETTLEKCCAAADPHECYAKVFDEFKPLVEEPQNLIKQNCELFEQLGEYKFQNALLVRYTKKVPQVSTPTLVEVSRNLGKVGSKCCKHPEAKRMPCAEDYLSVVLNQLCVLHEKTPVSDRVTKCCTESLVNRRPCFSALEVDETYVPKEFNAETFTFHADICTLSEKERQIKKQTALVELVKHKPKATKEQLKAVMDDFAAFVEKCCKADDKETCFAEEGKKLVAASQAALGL
- Procedure Details: HSA binding by RIAC method (gel filtration, apparent molecular weight)
- Type: in vitro ADME
- Experimental Conditions: HSA binding as apparent molecular weight, 700 μM HSA in PBS mobile phase
Parameter: HSA (kDa)

Molecule: C[C@@H](O)[C@H](NC(=O)C1CSSCC(NC(=O)C(Cc2ccccc2)NC(=O)[C@@H](CC(N)=O)NC(=O)C(CC(N)=O)NC(=O)[C@@H](CC(=O)O)NC(=O)C(CC(=O)O)NC(=O)[C@@H](CNC(=O)CN2CCN(CC(=O)O)CCN(CC(=O)O)CCN(CC(=O)O)CC2)NC(=O)C[N+](C)(C)Cc2ccc([Si](F)(C(C)(C)C)C(C)(C)C)cc2)C(=O)N[C@@H](Cc2ccc(O)cc2)C(=O)NC(Cc2c[nH]c3ccccc23)C(=O)N[C@@H](CCCCN)C(=O)N[C@@H]([C@@H](C)O)C(=O)N1)C(=O)O (some centres unmarked) [[Ga]48]
Tested Target: HSA (Homo sapiens, UniProt P02768)
Parameter: HSA
Assay Value: 8.11

Molecule: C[C@@H](O)[C@H](NC(=O)C1CSSCC(NC(=O)C(Cc2ccccc2)NC(=O)CNC(=O)CNC(=O)CNC(=O)C(CC(=O)O)NC(=O)[C@@H](CC(=O)O)NC(=O)C(CNC(=O)CN2CCN(CC(=O)O)CCN(CC(=O)O)CCN(CC(=O)O)CC2)NC(=O)[C@@H](CN)NC(=O)c2ccc([Si](F)(C(C)(C)C)C(C)(C)C)cc2)C(=O)N[C@@H](Cc2ccc(O)cc2)C(=O)NC(Cc2c[nH]c3ccccc23)C(=O)N[C@@H](CCCCN)C(=O)N[C@@H]([C@@H](C)O)C(=O)N1)C(=O)O (some centres unmarked) (natGa complex, metal not drawn) [[Ga]40]
Tested Target: HSA (Homo sapiens, UniProt P02768)
Parameter: HSA
Assay Value: 19.25

---

- Tested Target: HSA (Homo sapiens, UniProt P02768)
- Procedure Details: HSA binding by RIAC method (gel filtration, apparent molecular weight)
- Format: in vitro ADME
- Experimental Conditions: HSA binding as apparent molecular weight, 700 μM HSA in PBS mobile phase
HSA for assorted molecules
Parameter: HSA (kDa)

Molecule: C[C@@H](O)[C@H](NC(=O)C1CSSCC(NC(=O)C(Cc2ccccc2)NC(=O)CNC(=O)CNC(=O)[C@@H](CC(N)=O)NC(=O)C(CC(N)=O)NC(=O)[C@@H](CNC(=O)CC[C@H](C(=O)O)N2CCN(CC(=O)O)CCN(CC(=O)O)CCN(CC(=O)O)CC2)NC(=O)C(CN)NC(=O)c2ccc([Si](F)(C(C)(C)C)C(C)(C)C)cc2)C(=O)N[C@@H](Cc2ccc(O)cc2)C(=O)NC(Cc2c[nH]c3ccccc23)C(=O)N[C@@H](CCCCN)C(=O)N[C@@H]([C@@H](C)O)C(=O)N1)C(=O)O (stereo partly drawn) (natGa complex, metal not drawn) [[Ga]41]
Unit Spec: kDa
Assay Value: 15.48
--
Molecule: C[C@@H](O)[C@H](NC(=O)C1CSSCC(NC(=O)C(Cc2ccccc2)NC(=O)CNC(=O)CNC(=O)CNC(=O)C(CC(=O)O)NC(=O)[C@@H](CC(=O)O)NC(=O)C(CCC(=O)O)NC(=O)[C@@H](CNC(=O)C[N+](C)(C)Cc2ccc([Si](F)(C(C)(C)C)C(C)(C)C)cc2)NC(=O)CN2CCN(CC(=O)O)CCN(CC(=O)O)CCN(CC(=O)O)CC2)C(=O)N[C@@H](Cc2ccc(O)cc2)C(=O)NC(Cc2c[nH]c3ccccc23)C(=O)N[C@@H](CCCCN)C(=O)N[C@@H]([C@@H](C)O)C(=O)N1)C(=O)O (stereo partly drawn) [[Ga]47]
Unit Spec: kDa
Assay Value: 7.66
--
Molecule: C[C@@H](O)[C@H](NC(=O)C1CSSCC(NC(=O)C(Cc2ccccc2)NC(=O)[C@@H](CC(N)=O)NC(=O)C(CC(N)=O)NC(=O)CNC(=O)C(CC(=O)O)NC(=O)[C@@H](CC(=O)O)NC(=O)C(CNC(=O)CN2CCN(CC(=O)O)CCN(CC(=O)O)CCN(CC(=O)O)CC2)NC(=O)C[N+](C)(C)Cc2ccc([Si](F)(C(C)(C)C)C(C)(C)C)cc2)C(=O)N[C@@H](Cc2ccc(O)cc2)C(=O)NC(Cc2c[nH]c3ccccc23)C(=O)N[C@@H](CCCCN)C(=O)N[C@@H]([C@@H](C)O)C(=O)N1)C(=O)O (stereo partly drawn) [[Ga]49]
Unit Spec: kDa
Assay Value: 7.26

---

- Procedure Details: Octanol-water distribution coefficient (logD pH 7.4) of the labeled tracer
- Type: physicochemical
- Experimental Conditions: n-octanol/PBS pH 7.4, room temperature
Parameter: LogDpH=7.4

Molecule: C[C@@H](O)[C@H](NC(=O)C1CSSCC(NC(=O)C(Cc2ccccc2)NC(=O)CNC(=O)CNC(=O)CNC(=O)C(CC(=O)O)NC(=O)[C@@H](CC(=O)O)NC(=O)C(CNC(=O)CN2CCN(CC(=O)O)CCN(CC(=O)O)CCN(CC(=O)O)CC2)NC(=O)CNC(=O)C[N+](C)(C)Cc2ccc([Si](F)(C(C)(C)C)C(C)(C)C)cc2)C(=O)N[C@@H](Cc2ccc(O)cc2)C(=O)NC(Cc2c[nH]c3ccccc23)C(=O)N[C@@H](CCCCN)C(=O)N[C@@H]([C@@H](C)O)C(=O)N1)C(=O)O (stereo partly shown) (natGa complex, metal not drawn) [[Ga]60]
Assay Value: −2.24

---

- Procedure Details: Biodistribution of 18F-labeled SST2 ligands in AR42J tumor-bearing mice
- Format: in vivo
- Experimental Conditions: female, CD1 nu/nu, mouse, spleen, iv, total radioactivity, 1 h post injection, tail vein; read-out: Spleen % ID/g ± SD

Compound: C[C@@H](O)[C@H](NC(=O)C1CSSCC(NC(=O)C(Cc2ccccc2)NC(=O)CNC(=O)CNC(=O)CNC(=O)C(CC(=O)O)NC(=O)[C@@H](CC(=O)O)NC(=O)C(CNC(=O)CN2CCN(CC(=O)O)CCN(CC(=O)O)CCN(CC(=O)O)CC2)NC(=O)C[N+](C)(C)Cc2ccc([Si](F)(C(C)(C)C)C(C)(C)C)cc2)C(=O)N[C@@H](Cc2ccc(O)cc2)C(=O)NC(Cc2c[nH]c3ccccc23)C(=O)N[C@@H](CCCCN)C(=O)N[C@@H]([C@@H](C)O)C(=O)N1)C(=O)O (stereo partly shown) (natGa complex, metal not drawn) [[Ga]50]
tissue uptake at 1 h, %ID/g: 0.55

---

- Procedure Details: Octanol-water distribution coefficient (logD pH 7.4) of the labeled tracer
- Format: physicochemical
- Experimental Conditions: n-octanol/PBS pH 7.4, room temperature

Compound: C[C@@H](O)[C@H](NC(=O)C1CSSCC(NC(=O)C(Cc2ccccc2)NC(=O)CNC(=O)CNC(=O)CNC(=O)C(CC(=O)O)NC(=O)[C@@H](CC(=O)O)NC(=O)C(CCCNC(N)=O)NC(=O)[C@@H](CNC(=O)C[N+](C)(C)Cc2ccc([Si](F)(C(C)(C)C)C(C)(C)C)cc2)NC(=O)CN2CCN(CC(=O)O)CCN(CC(=O)O)CCN(CC(=O)O)CC2)C(=O)N[C@@H](Cc2ccc(O)cc2)C(=O)NC(Cc2c[nH]c3ccccc23)C(=O)N[C@@H](CCCCN)C(=O)N[C@@H]([C@@H](C)O)C(=O)N1)C(=O)O (stereo partly drawn) [[Ga]46]
LogDpH=7.4: −2.22

Compound: C[C@@H](O)[C@H](NC(=O)C1CSSCC(NC(=O)C(Cc2ccccc2)NC(=O)[C@@H](CC(N)=O)NC(=O)C(CC(N)=O)NC(=O)[C@@H](CC(=O)O)NC(=O)C(CC(=O)O)NC(=O)[C@@H](CNC(=O)CN2CCN(CC(=O)O)CCN(CC(=O)O)CCN(CC(=O)O)CC2)NC(=O)C[N+](C)(C)Cc2ccc([Si](F)(C(C)(C)C)C(C)(C)C)cc2)C(=O)N[C@@H](Cc2ccc(O)cc2)C(=O)NC(Cc2c[nH]c3ccccc23)C(=O)N[C@@H](CCCCN)C(=O)N[C@@H]([C@@H](C)O)C(=O)N1)C(=O)O (stereo partly drawn) [[Ga]48]
LogDpH=7.4: −2.10

Compound: C[C@@H](O)[C@H](NC(=O)C1CSSCC(NC(=O)C(Cc2ccccc2)NC(=O)[C@@H](CC(N)=O)NC(=O)C(CC(N)=O)NC(=O)[C@@H](CC(=O)O)NC(=O)C(CC(=O)O)NC(=O)[C@@H](CNC(=O)CN2CCN(CC(=O)O)CCN(CC(=O)O)CCN(CC(=O)O)CC2)NC(=O)C(CN)NC(=O)c2ccc([Si](F)(C(C)(C)C)C(C)(C)C)cc2)C(=O)N[C@@H](Cc2ccc(O)cc2)C(=O)NC(Cc2c[nH]c3ccccc23)C(=O)N[C@@H](CCCCN)C(=O)N[C@@H]([C@@H](C)O)C(=O)N1)C(=O)O (stereo partly drawn) (natGa complex, metal not drawn) [[Ga]42]
LogDpH=7.4: −2.41
